protein stability index values for the variants below.
B1: VTI1B (parent)
chain: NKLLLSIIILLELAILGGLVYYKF

Variants of: B1
Assay: protein stability index of a GFP-peptide fusion (GPS, HEK-293T) (PSI 1-6); higher = more stable;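 also: lentivirally expressed fusions sorted by FACS into six bins by GFP to DsRed ratio, PSI derived from sequencing read proportions per bin multiplied by bin number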
Conditions: c terminus: a fixed tail appended
Please give only the number in your answer, with no unit.

I7W    3.61

Exam item: Fill blank: measured protein stability index of the variant Y21R is ____.
Marked response: 2.32

Exam item: Same again, this time with L10H
Marked response: 3.04

Exam item: Entry to check: L13E
Marked response: 2.44

Exam item: Would you mind doing I7K as well?
Marked response: 2.41

Exam item: Then this variant: L16W
Marked response: 2.31
